# MEASURED TARGET: Dimeric Monkey Ang-2FD conjugated to human IgG1 (monkey (Macca fascicularis))
# Sequence (chain, as listed by the source limits assumed): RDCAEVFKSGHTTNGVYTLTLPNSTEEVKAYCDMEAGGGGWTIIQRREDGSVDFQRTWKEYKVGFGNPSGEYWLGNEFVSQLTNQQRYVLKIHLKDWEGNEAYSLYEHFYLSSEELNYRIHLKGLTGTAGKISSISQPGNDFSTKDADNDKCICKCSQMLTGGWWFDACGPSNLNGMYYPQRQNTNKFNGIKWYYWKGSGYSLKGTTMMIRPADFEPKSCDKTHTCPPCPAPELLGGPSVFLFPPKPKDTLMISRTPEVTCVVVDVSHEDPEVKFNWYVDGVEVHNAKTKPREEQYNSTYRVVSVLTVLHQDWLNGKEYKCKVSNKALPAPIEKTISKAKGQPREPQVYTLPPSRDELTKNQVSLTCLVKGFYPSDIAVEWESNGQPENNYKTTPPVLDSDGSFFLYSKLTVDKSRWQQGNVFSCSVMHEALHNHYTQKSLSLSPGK
# EXPERIMENT: SPR, antibody captured, room temperature
PROPERTY LABEL: pKd
pKd field: float, defined as -log10 of concentration (mol/L).

Asked: Please report the measured pKd for H1M732N (antibody, V domains shown) VH: EVQLVESGGGLVRPGGSLRLSCAASGFTFTNAWMSWVRQAPGKGLEWIGQIKSKTDGGTIDYAAPVKGRFTVSRDDSENTLFLQMNSLKTEDTAVYYCAGNWNYVDFDYWGQGTLVTVSS VL: DIQMTQSPSSLSASVGDRVTITCRASQDIRNDLGWYQQKPGKAPKRLIYAASSLQGGVPSRFSGSGSGTEFTLTISSLQPEDFATYYCLQHNSYPFTFGPGTKVDIK
Given back: 8.13

Asked: Please report the measured pKd for H1M724N (antibody, V domains shown) VH: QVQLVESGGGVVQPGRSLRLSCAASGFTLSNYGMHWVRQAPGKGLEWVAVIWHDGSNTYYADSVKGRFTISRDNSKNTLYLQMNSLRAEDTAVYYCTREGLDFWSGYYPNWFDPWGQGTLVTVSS VL: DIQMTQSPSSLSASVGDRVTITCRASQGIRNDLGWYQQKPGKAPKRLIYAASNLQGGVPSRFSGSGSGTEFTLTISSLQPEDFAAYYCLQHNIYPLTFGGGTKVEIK
Given back: 9.14

Asked: Please report the measured pKd for H1M728N (antibody, V domains shown) VH: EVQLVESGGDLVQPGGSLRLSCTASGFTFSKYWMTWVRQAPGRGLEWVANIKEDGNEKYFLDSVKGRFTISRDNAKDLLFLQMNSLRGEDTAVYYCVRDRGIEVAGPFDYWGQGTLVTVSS VL: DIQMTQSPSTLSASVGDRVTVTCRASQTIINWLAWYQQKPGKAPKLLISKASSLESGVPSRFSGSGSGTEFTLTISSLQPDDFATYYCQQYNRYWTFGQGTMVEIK
Given back: 8.80

Asked: Please report the measured pKd for H2M730N (antibody, V domains shown) VH: EVQLVESGGGLVQPGGSLRLSCAASGFAFRSYWMTWVRQAPGKGLEWVANIQQDGNDKYYVDSVKGRFTISRDNAKNSLYLQMNSLRAEDTAVYYCARDTGIAEAGPFDYWGQGTLVTVSS VL: DIQMTQSPSTLSASVGDRVSITCRASQTIISWLAWYQQKPGKAPRLLIYKASSLESGVPSRFSGSGSGTEFTLTINSLQPDDFATYYCQQYNRYWTFGQGTKVEIK
Given back: 9.07

Asked: Please report the measured pKd for H2M750N (antibody, V domains shown) VH: QVKLVESGGGVVQPGRSLRVSCAASGFTFSSYGMHWVRQAPGKGLEWLAIIWYDGDNKYYSDSVKGRFTISRDNSKNTLYLQMNSLRAEDTAEYYCVRDASIASRFLDYWGQGTLVTVSS VL: DIQMTQSPSSLSASIGDRVTITCRATQDINNYLAWFQQKPGKAPKSLIYATSNLQSGVPSKFSGSGSGTDYTLTISSLQPEDFSTYYCQQYHSYPLTFGGGTKVEIK
Given back: 8.83
